- Test system: RXRa homodimer (NR concentration 180 nM)
- experiment.description: PBM binding z-score (relative to random genomic background probes); higher = stronger binding; sequences stand for … in GC…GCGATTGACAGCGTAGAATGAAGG
Each entry below lists one item and its recorded PBM binding z-score value.
measured.parameter: PBM binding z-score

# entry.sequence, measured.parameter, reading
records = [
    ("ATCGAAAGATCGAAGGTGAGTATACCCACCCGAA", "PBM binding z-score", 0.765),
    ("GCTGCTAGGTCAGGTTGGTCAGCTACCGGGTACG", "PBM binding z-score", 0.808),
    ("TCTATTAGTTGATTCGGGCAACCGAAACAGCGGA", "PBM binding z-score", 0.328),
    ("CAAACTAGGTCGAGGTCAAAGTCGGTTTGTGCCA", "PBM binding z-score", 5.63),
    ("GCTATTCGTTGAAAGGGCAACCGAATGATTCTCG", "PBM binding z-score", 0.916),
    ("CTCGAAACGTCGGTTGAGGTGAGTATACGGATAA", "PBM binding z-score", -0.0266),
]

* * *

- System: PPARg:RXRa 270nM:90nM, anti-RXR (NR concentration 270 nM, RXRa partner concentration 90 nM)
- experiment.description: PBM binding z-score (relative to random genomic background probes); higher = stronger binding; sequences stand for … in GC…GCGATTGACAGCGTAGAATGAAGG
# PBM binding z-score per entry

# entry.sequence, PBM binding z-score
measured = [
    ("AGCCAAAGTTCATCTAGGTAACGTAAGATATGCT", 5.53),
    ("ATCACTAGGTAAAGATAGTTCAGTGAATGCAAAT", 0.685),
    ("TCGAGTAGATTAGGGGCATTCAGAATGGCGTCGA", 0.334),
    ("CAAACTAGATCACAGAGGTCAAAGTCCGTGCGTA", 4.86),
    ("GCGACTGGGGCATCAGCAGGATACCATAACTTAA", 0.422),
    ("CTCGAAAGGTCGGTTGTGGTGAGTATACGGATAA", 0.949),
    ("CCTACAGGGCCATTCAGAGGTCATTGATCATATG", 1.79),
    ("ACTATTAGTTGACTTAAGGCAACCGATACGACGC", 0.607),
    ("AGTCAAAGTTCATTAGGTAACGTAAGATTCAGCT", 6.16),
    ("GATACAGGGTCAGCTAGAGGCCAGAGTATGGAAA", 3.35),
    ("TCATACAGGTAAACAGGTGAAAGTCCGTAAGTTA", 3.16),
    ("CTACCAAGGCGAACAAGGTCGTTGATTACTATTC", 0.292),
    ("TCTATTAGTTGAAGGGCAACCGGCGAGTCCGTTT", 2.04),
    ("CCTGCTTGGTCAATGGTCAGCTAAAGCAGCTCGC", 0.82),
    ("TCATATAGGTAAAGAGGTGAAAGTCCGTAAGTTA", 4.63),
    ("CAAACTAGGTCACAGAGCTCAAAGTCCGTGCGTA", 7.47),
    ("CCAGCTAGGTCAATGGTCAGCTAAAGCAGCTCGC", 5.75),
    ("CCGACTGGGGCATAAGATTACCATAAGCCAGCCC", 0.921),
    ("AGAATGAGGTTACCAAAGAGCAGGGAAACGCTTG", 2.47),
    ("TCATATAGGTAAATGCTAGGCGAAAGTCCGATCT", 2.22),
    ("TGTCAAAGTTCAAAGGTAACCTAAGTATCCACAC", 7.74),
    ("CGAACTAGGTCAAGGAGAGTGAATCTCCGCACGC", 6.29),
    ("ATCTCTAGGTAAAGTTCGGTGAAAGATCGATAGA", 2.48),
    ("AGTCAAAGTTCCTCTAGGTAACGTAAGATATGCT", 0.996),
    ("TGAAGGAGGTTATAAGATCAGGGAACGTTGCAAA", 1.42),
    ("GCTGCTAGGTCAACTGATGGTCAGATAAAGCTCG", 3.18),
]
